- Assay Info: Stability to basic conditions (NaHCO3)
- Type: physicochemical
- Condition Label: NaHCO3 in MeOH, 23° C.; read-out: t1/2 with NaHCO3 (converted)
Quantity: half-life (h)
Answer in h, number only, no unit symbol.

Query block: Please give measured half-life of the following entry: CC(C)(C)OC(=O)N1CC(CCl)c2c1cc1c3c(cccc23)C(=O)NO1 (stereo not shown)
Result block: 70

* * *

Reported half-life values for the following molecules.
- Assay Info: physchem
- Condition Label: buffer
Answer in h, number only, no unit symbol.

CC(C)(C)OC(=O)N1CC(CCl)c2c1cc1c3c(cccc23)C(=O)NO1 (centres unmarked) : 2

# next molecule below
Query block: Please give measured half-life of the following entry: CN1Oc2cc3c(c4cccc(c24)C1=O)C(CCl)CN3C(=O)OC(C)(C)C (centres unmarked)
Result block: 24

* * *

Reported IC50 values for the following compounds.
- Test system: L1210 (ATCC CCL-219) mouse lymphocytic leukemia cells
- Assay Info: Cell growth inhibition assay (phosphatase readout)
- Format: cell-based
- Condition Label: Mus musculus, L1210, 72 h, read-out: IC50 L1210 unnatural, unnatural enantiomer, 72 hours
- Procedure: Compounds were tested for their cell growth inhibition of L1210 (ATCC CCL-219) mouse lymphocytic leukemia cells. A population of cells (>1×10^6 cells/mL as determined with a hemocytometer) was diluted with an appropriate amount of Dulbecco-modified Eagle Medium (DMEM, Gibco) containing 10% fetal bovine serum (FBS, Gibco) to a final concentration of 30,000 cells/mL. To each well of a 96-well plate (Corning® Costar®), 100 μL of the cell-media solution was added with a multichannel pipette. […]
Answer in nM, number only, no unit symbol.

CN1Oc2cc3c(c4cccc(c24)C1=O)[C@H](CCl)CN3C(=O)c1cc2cc(NC(=O)c3cc4ccccc4[nH]3)ccc2[nH]1 : 740
O=C(Nc1ccc2[nH]c(C(=O)N3C[C@@H](CCl)c4c3cc3c5c(cccc45)C(=O)NO3)cc2c1)c1cc2ccccc2[nH]1 : 65
COC(=O)c1cc2c([nH]1)C(=O)C=C1N(C(=O)c3cc4cc(OC)c(OC)c(OC)c4[nH]3)C[C@H]3CC123 (stereo partly drawn) [Compound 1, Duocarmycin SA, reference compound] : 0.1

# next compound below
Query block: Please give measured IC50 of the following entry: COc1c(O)c2c(c3cc(C(=O)N4CCc5c4c(O)c(OC)c4[nH]c(C(=O)N6C[C@H]7CC78C6=CC(=O)c6[nH]cc(C)c68)cc54)[nH]c13)CCN2C(N)=O (stereo partly drawn) [Compound 2, CC-1065, reference compound]
Result block: 0.02

* * *

- Tested on: L1210 (ATCC CCL-219) mouse lymphocytic leukemia cells
- Assay Info: Cell growth inhibition assay (phosphatase readout)
- Format: cell-based
- Condition Label: Mus musculus, L1210; natural enantiomer, 72 hours; read-out: IC50 L1210 natural
Quantity: pIC50
FYI, pIC50 means -log10 of a concentration in mol per litre.

O=C(Nc1ccc2[nH]c(C(=O)N3C[C@@H](CCl)c4c3cc(O)c3ccccc43)cc2c1)c1cc2ccccc2[nH]1 [Compound 4, seco-CBI-indole2, reference compound] : 10.52

# next compound below
Query block: Please give measured pIC50 of the following entry: O=C(Nc1ccc2[nH]c(C(=O)N3C[C@@H](CCl)c4c3cc3c5c(cccc45)C(=O)NO3)cc2c1)c1cc2ccccc2[nH]1
Result block: 9.52

* * *

- Test system: L1210 (ATCC CCL-219) mouse lymphocytic leukemia cells
- Assay Info: Cell growth inhibition assay (phosphatase readout)
- Type: cell-based
- Condition Label: Mus musculus, L1210, 72 h, read-out: IC50 L1210, tested as a racemic mixture, 72 hours
Quantity: IC50
Answer shape: numeric part, then the unit.

Query block: Please report IC50 with L1210 (ATCC CCL-219) mouse lymphocytic leukemia cells for item CNC(=O)c1cccc2c3c(cc(O)c12)N(C(=O)c1cc2cc(NC(=O)c4cc5ccccc5[nH]4)ccc2[nH]1)CC3CCl (racemic) .
Result block: 0.073 nM
